system: OVCAR-3 ovarian; assay: NCI tumour cell line growth inhibition, 48 h
observation_type: TGI (µM)

In [3]: df
Out[3]:
                              smiles_string   assayed_system  units_text  modifier  reported_measurement
0  COC(=O)C1(C(=O)OC)Cc2ccc(OC)cc2C2=C1C(=O)c1ccccc1C2=O  OVCAR-3 ovarian          µM         =                  3.69
1  CS(=O)(=O)c1nc(-c2cc3c(c(S(C)(=O)=O)n2)CCC3)cc2c1CCCCC2  OVCAR-3 ovarian          µM         >                   100
2                          Nc1ccnc(=O)[nH]1  OVCAR-3 ovarian          µM         >                   100
3     COc1cc2ccc(/C=C\[N+](=O)[O-])cc2cc1OC  OVCAR-3 ovarian          µM         =                  18.1
4  Cc1c(C(N)=O)sc2c1C(=O)N(Cc1ccccc1)C1=NN=C(c3ccc(Cl)cc3)CN12  OVCAR-3 ovarian          µM         =                  16.4

----------
test system: SR leukemia; assay: NCI tumour cell line growth inhibition, 48 h
observation_type: TGI

                              smiles_string  reported_measurement
0   O=C(CN1CCCCC1)Nc1ccc2sc3ccccc3c(=O)c2n1              > 100 µM
1  CCOC(=O)NC(=O)c1cn(CCOC(=O)CCCCCCCCC(=O)OCCn2cc(C(=O)NC(=O)OCC)c(=O)[nH]c2=O)c(=O)[nH]c1=O              > 100 µM
2       Cn1c2ccccc2n2c(N=O)c(-c3ccccc3)nc12              > 100 µM

----------
Measured TGI values are reported for all entries that follow.
tested on: SNB-75 CNS; experiment: NCI tumour cell line growth inhibition, 48 h
observation_type: TGI

>>> print(df.to_string())
                                    molecule  observation_type  reported_measurement
 0  COc1ccc(C2=CC(c3ccc4c(c3)OCO4)c3c(c4ccccc4oc3=O)O2)cc1OC (stereo unspecified)               TGI             > 21.4 µM
 1  O=C1NC2ON=C(c3ccccc3)C2C2ON=C(c3ccccc3)N12 (stereo unspecified)               TGI              > 100 µM
 2                Cc1cc2ccccc2n2c1nc1ccccc12               TGI              > 100 µM
 3  CNC1=C(C)C(=O)C(=O)C([C@H](C)CCC=C(C)C)=C1O               TGI             > 94.4 µM
 4  CN1CCOC(c2ccc(Cl)cc2)O1 (stereo unspecified)               TGI              > 100 µM
 5  Fc1ccc2c(c1)C1=NN(c3ccccc3)C(F)C1CO2 (stereo unspecified)               TGI                 32 µM
 6  CC(=O)CC(=O)OC1CC(C)CCC1C(C)C (stereo unspecified)               TGI              > 100 µM
 7  CNc1ncnc2c1ncn2C1C=CC(COS(N)(=O)=O)C1 (stereo unspecified)               TGI              > 100 µM
 8  C=C(C)C1=CCC[C@]2(C1)N=C(OC)[C@@H](C(C)C)N=C2OC               TGI              > 100 µM
 9  O=C(CSc1nnc(-c2ccc(N=Cc3ccc(Cl)cc3)cc2)o1)Nc1ccccc1[N+](=O)[O-]               TGI              > 100 µM
10  C=C1CCC2C3(C)COC(c4ccc(N(C)C)cc4)OC3CCC2(C)C1C/C=C1/C(=O)OCC1O (stereo unspecified)               TGI               7.97 µM
11  C=C1C(=O)O[C@H]2[C@H]1CC/C(COC(=O)NCc1cn(C)c3ccccc13)=C\CC[C@@]1(C)O[C@@H]21               TGI               17.6 µM
12  COC(=O)C(=O)C(C(=O)C(=O)Nc1ccc(F)cc1)c1nc2ccc([N+](=O)[O-])cc2[nH]c1=O (stereo unspecified)               TGI              > 100 µM
13  O=[N+]([O-])O.[Cu+2].[NH-]CC[NH-].[NH-]CC[NH-]               TGI               > 10 µM
14                     CCOC(=O)N1CCN(C=S)CC1               TGI              > 100 µM
15   NC(N)=N/N=C/c1c(-c2ccc(Cl)cc2)nc2sccn12               TGI               3.61 µM
16            COC(=O)N/N=C(\Cc1ccccc1)CN(C)C               TGI              > 100 µM
17               Cc1ccc(Nc2n[nH]c(=S)s2)cc1C               TGI              > 100 µM
18  COc1cc(NC(C)CCCNC2CN3CCC2CC3)c2ncccc2c1 (stereo unspecified)               TGI               20.6 µM
19           COc1ccc(Br)c(N/N=C2\CCCNC2=O)c1               TGI              > 100 µM
20  c1ccc2c(c1)cc(C1NCCc3[nH]cnc31)c1ccccc12 (stereo unspecified)               TGI              > 100 µM
21  Cc1c(C(N)=O)sc2c1C(=O)N(Cc1ccccc1)C1=NN=C(c3ccc(Cl)cc3)CN12               TGI               23.7 µM
22  Cn1c(=O)c(Br)c(C=O)n(CCO[N+](=O)[O-])c1=O               TGI                 27 µM
23  CCCCCCCCCCCCCCCCCCNc1ccn(C2OC(COP(=O)(O)OCC3OC(n4cc(F)c(=O)[nH]c4=O)CC3O)C(O)C2O)c(=O)n1 (stereo unspecified)               TGI              > 100 µM
24       CN(C)CCN1C(=O)c2ccccc2N(C)c2ccccc21               TGI              > 100 µM
25  C=Cc1ccc(C)[n+](C[Si](C)(C)O[Si](C)(C)C)c1               TGI              > 100 µM
